- procedure_details: Toxicity liver stage against HepG2, at 10uM
- Format: cell-based
- Design: test concentration 10 uM, cell line HepG2-A16-CD81EGFP
- conditions_used: human, HepG2-A16-CD81EGFP cells; read-out: INHIBITION
parameter_measured: cytotoxicity at 10 µM (%)
Report as a plain number; the unit % is understood.

molecule	cytotoxicity at 10 µM (%)
CC(C)(C)n1cc(CNC2CCN(C(=O)c3ccncc3)CC2)cn1	-6.72
O=C(CN1CCN(C(=O)c2cccc(-c3ccoc3)c2)CC1)C1CC1	0.504
Cn1ncc(C(=O)OCC2CC(=O)N(c3ccccc3)C2)c1C(F)F (configuration not stated)	1.93
NS(=O)(=O)c1cc(C(=O)N2CCCCC2)cs1	-0.174
COc1cc(CN)c(OC)c2c1OCO2	-1.29
O=S1(=O)NCC2(CCNCC2)COc2ccccc21	-2.75
Cc1noc(CNc2ccc(OC(F)F)cc2OC(F)F)n1	1.85
CN(C)C(=O)C1(CCCc2ccccn2)CCN1Cc1nccn1C (configuration not stated)	8.08
CN1CCN(c2ccnc3c(F)cc(Br)cc23)CC1	27.2
CCOCC1CN(C(=O)c2cscn2)Cc2nnn(CC3CC3)c21 (configuration not stated)	1.9

cytotoxicity at 10 µM recorded for this molecule, COC(=O)CCNC(=O)C1CC(=O)N(C2CCCC2)C1 (configuration not stated) , is -22.9

According to the records, this molecule c1cc(N2CCOCC(Cc3ccc4[nH]ccc4c3)C2)ncn1 (configuration not stated) displays cytotoxicity at 10 µM of -15.9

Where do the numbers come from? From ChEMBL document CHEMBL4513216.
